B1: 5KPH (parent)
chain: EEKRQVKQVAKEKLLEQSPNSKVQVRRVQKQGNTIRVELELRTNGKKENYTVEVERQGNTWTVKRITRT

Variants of: B1
ASSAY PROCEDURE: folding stability dG (cDNA display proteolysis); higher = more stable
CONDITION DETAILS: PBS, room temperature
Record true whenever folding stability dG is at 3 kcal/mol or higher; record false when lower.

{"MUTATIONS": "Q57Y", "GROUP LABEL": "true"}
{"MUTATIONS": "K47A", "GROUP LABEL": "true"}
{"MUTATIONS": "P19A", "GROUP LABEL": "false"}
{"MUTATIONS": "V25Y", "GROUP LABEL": "false"}
{"MUTATIONS": "V25I", "GROUP LABEL": "true"}
{"MUTATIONS": "L41C", "GROUP LABEL": "true"}
{"MUTATIONS": "V28W", "GROUP LABEL": "true"}
{"MUTATIONS": "Q17M", "GROUP LABEL": "true"}
{"MUTATIONS": "Q8M", "GROUP LABEL": "true"}
{"MUTATIONS": "W61I", "GROUP LABEL": "true"}
{"MUTATIONS": "K13A", "GROUP LABEL": "true"}
